Cited source for all entries: ChEMBL document CHEMBL1157095

Known pKd of a selection of molecules
target or test system: Nucleic Acid
test description: Binding affinity to pUC18 DNA at pH 7.5 by UV-Vis spectrophotometry analysis
Assay type: nucleic-acid assay
pKd: −log10 of the molar value.
observable: pKd

* CC(C)NCCNc1ccnc2cc(Cl)ccc12 | 4.76
* CCN(CC)CCCC(C)Nc1ccnc2cc(Cl)ccc12 (centres undefined) [CHLOROQUINE] | 5.12
* CN(C)CCC(NCCNc1ccnc2cc(Cl)ccc12)c1ccccc1 (centres undefined) | 5.15
* Clc1ccc2c(NCCNC(CCN3CCCCC3)c3ccccc3)ccnc2c1 (centres undefined) | 6.00

* * *

Known Tm of a selection of compounds
Tested on: Nucleic Acid
test description: Binding affinity to pUC18 DNA containing 50% AT assessed as middle of the peak at half height melting temperature at 1 uM by spectrophotometry analysis
Type: nucleic-acid assay
observable: Tm

- CN(C)CCC(NCCNc1ccnc2cc(Cl)ccc12)c1ccccc1 (centres undefined): 76.5 °C
- CC(C)NCCNc1ccnc2cc(Cl)ccc12: 74.5 °C
- Clc1ccc2c(NCCNC(CCN3CCCCC3)c3ccccc3)ccnc2c1 (centres undefined): 75 °C
- CCN(CC)CCCC(C)Nc1ccnc2cc(Cl)ccc12 (centres undefined): 74.7 °C
